assay: MTD in non-tumor bearing SCID mice; details: mouse, in vivo, ip, i.p. daily×7
Where a name gives a salt, the structure may show the parent alone.
Reported Metric: MTD (mg/kg)
Express your answer in mg/kg, writing the number without its unit.

Data request: What value of measured MTD is listed for N=c1nc2n(cc1Br)[C@@H]1O[C@H](CO)[C@H](O2)[C@H]1O [hydrochloride] ?
Data returned: 250
